- measured_target: OCT2 (Homo sapiens, UniProt O15244)
- assay_method_text: Inhibition of model substrate uptake in OCT2-overexpressing HEK293 cells
- condition_notes: IC50 [μM], OCT2, Table 1
Please use True for IC50 under 20 µM and False for everything else, ties included.

Ask: Given the entry CCN1CCC[C@H]1CNC(=O)c1cc(S(=O)(=O)CC)c(N)cc1OC [(S)-Amisulpride] , would its reported IC50 be below 20 µM?
Reply: False

Ask: Subsequent entry: CN(C)CCC[C@@]1(c2ccc(F)cc2)OCc2cc(C#N)ccc21 [(S)-Citalopram]
Reply: True

Ask: Could you do the same for CN(C)CCC[C@]1(c2ccc(F)cc2)OCc2cc(C#N)ccc21 [(R)-Citalopram] , please?
Reply: True

Ask: Same thing, different molecule: CCCCN1CCCC[C@H]1C(=O)Nc1c(C)cccc1C [(S)-Bupivacaine]
Reply: False

Ask: Try this molecule next: CCCCN1CCCC[C@@H]1C(=O)Nc1c(C)cccc1C [(R)-Bupivacaine]
Reply: False

--- query ---
Ask: Does the reported IC50 of the following molecule sit strictly below 20 µM? CCN1CCC[C@@H]1CNC(=O)c1cc(S(=O)(=O)CC)c(N)cc1OC [(R)-Amisulpride]
Reply: True

---

- measured_target: OCT2 (Homo sapiens, UniProt O15244)
- assay_method_text: Inhibition of model substrate uptake in OCT2-overexpressing HEK293 cells
- condition_notes: human, OCT2-overexpressing HEK293 cells, pH 7.4, probe (S,S)-ethambutol (2 μM), (S,S)-Ethambutol inhibition [%], OCT2; 20 μM inhibitor, 2 μM (S,S)-ethambutol, 5 min
Below, each entry is listed alongside its reported inhibition at 5 min, 20 μM.

Guide cases for inhibition at 5 min, 20 μM, answers given:
Ask: I have this compound here, CNC[C@H](O)c1cccc(O)c1 [(R)-Phenylephrine] , and I need its recorded inhibition at 5 min, 20 μM.
Reply: -8.4%

Ask: Follow-up entry: CC(C)NC[C@@H](O)COc1cccc2ccccc12 [(R)-Propranolol]
Reply: 25%

Ask: For CN(C)CCO[C@](C)(c1ccccc1)c1ccccn1 [(R)-Doxylamine] then?
Reply: 26.2%

New cases:
Ask: Which inhibition at 5 min, 20 μM is reported for this compound? CN(C)CCC[C@]1(c2ccc(F)cc2)OCc2cc(C#N)ccc21 [(R)-Citalopram]
Reply: 1.4%

Ask: Another compound: C=C[C@H]1C[N@@]2CC[C@H]1C[C@H]2[C@H](O)c1ccnc2ccc(OC)cc12
Reply: 13.4%

Ask: Further, for CCCCN1CCCC[C@H]1C(=O)Nc1c(C)cccc1C [(S)-Bupivacaine] ?
Reply: 38.5%

Ask: Now consider COc1ccccc1OCCNC[C@H](O)COc1cccc2[nH]c3ccccc3c12 [(S)-Carvedilol] and answer again.
Reply: 8.7%

Ask: Ok, now CC(C)(C)NC[C@@H](O)COc1nsnc1N1CCOCC1 [(R)-Timolol]
Reply: 12%

Ask: # iterate: CC(C)Cc1ccc([C@@H](C)C(=O)O)cc1 [(R)-Ibuprofen]
Reply: 7%

Ask: Try this compound next: CC(C)Cc1ccc([C@H](C)C(=O)O)cc1 [(S)-Ibuprofen]
Reply: 14.5%

---

- measured_target: OCT2 (Homo sapiens, UniProt O15244)
- Sequence (O15244 1-555): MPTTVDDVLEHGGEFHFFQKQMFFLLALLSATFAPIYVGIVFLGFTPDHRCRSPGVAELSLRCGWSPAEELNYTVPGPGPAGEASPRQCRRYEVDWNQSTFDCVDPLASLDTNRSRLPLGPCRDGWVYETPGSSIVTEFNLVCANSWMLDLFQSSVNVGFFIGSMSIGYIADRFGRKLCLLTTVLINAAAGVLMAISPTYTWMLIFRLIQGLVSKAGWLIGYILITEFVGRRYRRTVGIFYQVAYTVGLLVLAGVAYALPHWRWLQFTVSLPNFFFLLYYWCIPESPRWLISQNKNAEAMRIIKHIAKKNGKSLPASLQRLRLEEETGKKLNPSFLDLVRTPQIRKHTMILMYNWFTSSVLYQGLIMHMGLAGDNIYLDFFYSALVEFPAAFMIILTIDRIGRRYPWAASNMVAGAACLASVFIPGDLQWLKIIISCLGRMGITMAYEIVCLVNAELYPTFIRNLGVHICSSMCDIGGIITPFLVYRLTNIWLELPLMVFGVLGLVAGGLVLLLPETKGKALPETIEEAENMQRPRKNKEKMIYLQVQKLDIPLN
- assay_method_text: Inhibition of model substrate uptake in OCT2-overexpressing HEK293 cells
- condition_notes: OCT2; 20 μM inhibitor, 2 μM ASP+, 5 min
recorded_metric: ASP+ inhibition [%] (%)
Numeric answer only, unit % assumed.

Look over these answered cases.
Ask: Which value of ASP+ inhibition [%] has been reported for C#CCN(C)[C@@H](C)Cc1ccccc1 [(S)-Deprenyl] in the records?
Reply: 88.0

Ask: Would you kindly repeat that for CC(C)(C)NC[C@@H](O)c1ccc(O)c(CO)c1 [(S)-Salbutamol] ?
Reply: -2.8

Ask: Again, but for C#CCN[C@@H]1CCc2ccccc21 [(R)-Rasagiline]
Reply: 51.7

Ask: Follow-up entry: CNCC[C@H](Oc1ccc(C(F)(F)F)cc1)c1ccccc1 [(S)-Fluoxetine]
Reply: 56.6

Ask: Subsequent entry: CCC(CO)NCCNC(CC)CO [(R,S)-Ethambutol]
Reply: 26.0

Further cases:
Ask: What does the record list as ASP+ inhibition [%] for CCN1CCC[C@@H]1CNC(=O)c1cc(S(=O)(=O)CC)c(N)cc1OC [(R)-Amisulpride] ?
Reply: 65.9

Ask: What do we get for CCC(CO)NCCNC(CC)CO [(S,S)-Ethambutol] ?
Reply: 38.8

Ask: And then CC(C)C[C@@H](N(C)C)C1(c2ccc(Cl)cc2)CCC1 [(R)-Sibutramine] , what is it?
Reply: 81.6

Ask: Same question, CC(C)(C)NC[C@H](O)c1ccc(O)c(CO)c1 [(R)-Salbutamol] this time
Reply: 12.8

Ask: Query COc1ccc([C@@H](CN(C)C)C2(O)CCCCC2)cc1 [(S)-Venlafaxine] next
Reply: 21.8

Ask: Proceed to CCN(CC)CC#CCOC(=O)[C@@](O)(c1ccccc1)C1CCCCC1 [(S)-Oxybutynine]
Reply: 92.8

Ask: Try this compound next: CN(C)CCO[C@@](C)(c1ccccc1)c1ccccn1 [(S)-Doxylamine]
Reply: 64.3

Ask: Please do the same for N[C@H]1CONC1=O [(S)-Cycloserine] as well.
Reply: 14.6

Ask: O=C(OC1C[N+]2(CCCOc3ccccc3)CCC1CC2)C(O)(c1cccs1)c1cccs1 [(S)-Aclidinium] ?
Reply: 101.8

Ask: Proceed to CCN1CCC[C@H]1CNC(=O)c1cc(S(=O)(=O)CC)c(N)cc1OC [(S)-Amisulpride]
Reply: 38.0

Ask: Same read-out for CC(C)C[C@H](N(C)C)C1(c2ccc(Cl)cc2)CCC1 [(S)-Sibutramine] ?
Reply: 83.9

Origin of values: paper PMC10698726
